meta.source: patent US20130251724A1

For each of the binders below, state its Kd.
- Subject Of Test: T1, Human OSM (human, UniProt P13725 26-221)
- T1 construct: Recombinant human OSM; also called hOSM; human Oncostatin M
- T1 sequence: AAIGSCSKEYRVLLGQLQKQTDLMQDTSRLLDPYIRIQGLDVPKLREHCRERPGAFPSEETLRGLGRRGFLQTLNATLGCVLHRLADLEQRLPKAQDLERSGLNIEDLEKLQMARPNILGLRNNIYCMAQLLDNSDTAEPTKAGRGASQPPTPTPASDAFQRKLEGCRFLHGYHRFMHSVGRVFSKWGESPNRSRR
- Assay Method Text: SPR (ProteOn XPR36 or Biacore T100), captured supernatant, OSM as analyte
Report the value in nM with no unit label.

Lab book: Kd of Pos 100D Glu (antibody, V domains shown, also called CDRH3 F100D>E) VH: EVQLVESGGGLVQPGGSLRLSCAASGFTFSSYAMSWVRQAPGKGLEWVATISDGGSFTYYLDNVRGRFTISRDNAKNSLYLQMNSLRAEDTAVYYCARDVGHTTFWYEDVWGRGTLVTVSS VL: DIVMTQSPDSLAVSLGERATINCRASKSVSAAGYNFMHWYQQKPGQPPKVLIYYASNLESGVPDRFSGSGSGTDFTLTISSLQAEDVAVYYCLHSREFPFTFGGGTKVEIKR noted as 0.688

Lab book: Kd of Pos 100D Ala (antibody, V domains shown, also called CDRH3 F100D>A) VH: EVQLVESGGGLVQPGGSLRLSCAASGFTFSSYAMSWVRQAPGKGLEWVATISDGGSFTYYLDNVRGRFTISRDNAKNSLYLQMNSLRAEDTAVYYCARDVGHTTFWYADVWGRGTLVTVSS VL: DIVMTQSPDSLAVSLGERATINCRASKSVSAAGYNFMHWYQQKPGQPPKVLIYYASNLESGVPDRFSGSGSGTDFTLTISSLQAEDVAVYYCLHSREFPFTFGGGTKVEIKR noted as 0.869
